Tested on: BCL2 G101V
Assay: TR-FRET competitive binding assay, BCL2 G101V
Design: species or system human
Details: ratio of Ki BCL2 G101V to BCL2 WT
Below: a set of entries, each annotated with reported TR_FRET EKI G101V/WT selectivty.
readout.type: TR_FRET EKI G101V/WT selectivty

Cc1c(C(=O)N(c2ccccc2)c2cnn(C)c2)cc(-c2cc3c(cc2C(=O)N2Cc4ccccc4C[C@H]2CN2CCCCC2)CN(C(=O)Cc2ccc(OCCC4CCOCC4)cc2)CC3)n1C [Example 240]
57.8
Cc1c(N(C(=O)c2cc(-c3cc4c(cc3C(=O)N3Cc5ccccc5C[C@H]3CN3CCCCC3)CN(C(=O)Cc3ccc(OCCN5CCOCC5)cc3F)CC4)n(C)c2C)c2ccc(O)cc2)cc(C#N)n1C [Example 229]
5.5
Cc1c(N(C(=O)c2cc(-c3cc4c(cc3C(=O)N3Cc5ccccc5C[C@H]3C)CN(C(=O)Cc3ccc(OCCNCCF)cc3)CC4)n(C)c2C)c2ccc(O)cc2)cc(C#N)n1C [Example 235]
4.2
Cc1c(C(=O)N(c2ccccc2)c2cnn(C)c2)cc(-c2cc3c(cc2C(=O)N2Cc4ccccc4C[C@H]2C)CN(C(=O)Cc2ccc(OCCC4CCN(C)CC4)cc2)CC3)n1C [Example 237]
16.3
Cc1c(N(C(=O)c2cc(-c3cc4c(cc3C(=O)N3Cc5ccccc5C[C@H]3CN)CN(C(=O)Cc3ccc(OCCN5CCOCC5)cc3F)CC4)n(C)c2C)c2ccc(O)cc2)cc(C#N)n1C [Example 230]
4.8
